measurement.protocol: Intrinsic clearance in human liver microsomes at 1 uM in presence of NADPH
Assay type: ADME, Microsome
assay.context: read-out: CLH
property.name: microsomal CLint at 1 µM
Answer shape: numeric part, then the unit.

CCN(CC(=O)NC1CC1)C(=O)c1ccc2c(c1)c1c(n2C)CCC(C2CCOCC2)C1 (racemic) : 53 µL/min/mg

Prompt: Name the reported microsomal CLint at 1 µM value associated with the compound CN(CC(=O)NC1CC1)C(=O)c1ccc2c(c1)c1c(n2C)CCC(C2CCOCC2)C1 (racemic)
Completion: 37 µL/min/mg

Prompt: Then CNC(=O)CCCN(C)C(=O)c1ccc2c(c1)c1c(n2C)CCC(C2CCOCC2)C1 (racemic) ?
Completion: 27 µL/min/mg
